measured.target: GCN2 kinase (Homo sapiens, UniProt Q9P2K8)
Sequence (Q9P2K8 whole entry): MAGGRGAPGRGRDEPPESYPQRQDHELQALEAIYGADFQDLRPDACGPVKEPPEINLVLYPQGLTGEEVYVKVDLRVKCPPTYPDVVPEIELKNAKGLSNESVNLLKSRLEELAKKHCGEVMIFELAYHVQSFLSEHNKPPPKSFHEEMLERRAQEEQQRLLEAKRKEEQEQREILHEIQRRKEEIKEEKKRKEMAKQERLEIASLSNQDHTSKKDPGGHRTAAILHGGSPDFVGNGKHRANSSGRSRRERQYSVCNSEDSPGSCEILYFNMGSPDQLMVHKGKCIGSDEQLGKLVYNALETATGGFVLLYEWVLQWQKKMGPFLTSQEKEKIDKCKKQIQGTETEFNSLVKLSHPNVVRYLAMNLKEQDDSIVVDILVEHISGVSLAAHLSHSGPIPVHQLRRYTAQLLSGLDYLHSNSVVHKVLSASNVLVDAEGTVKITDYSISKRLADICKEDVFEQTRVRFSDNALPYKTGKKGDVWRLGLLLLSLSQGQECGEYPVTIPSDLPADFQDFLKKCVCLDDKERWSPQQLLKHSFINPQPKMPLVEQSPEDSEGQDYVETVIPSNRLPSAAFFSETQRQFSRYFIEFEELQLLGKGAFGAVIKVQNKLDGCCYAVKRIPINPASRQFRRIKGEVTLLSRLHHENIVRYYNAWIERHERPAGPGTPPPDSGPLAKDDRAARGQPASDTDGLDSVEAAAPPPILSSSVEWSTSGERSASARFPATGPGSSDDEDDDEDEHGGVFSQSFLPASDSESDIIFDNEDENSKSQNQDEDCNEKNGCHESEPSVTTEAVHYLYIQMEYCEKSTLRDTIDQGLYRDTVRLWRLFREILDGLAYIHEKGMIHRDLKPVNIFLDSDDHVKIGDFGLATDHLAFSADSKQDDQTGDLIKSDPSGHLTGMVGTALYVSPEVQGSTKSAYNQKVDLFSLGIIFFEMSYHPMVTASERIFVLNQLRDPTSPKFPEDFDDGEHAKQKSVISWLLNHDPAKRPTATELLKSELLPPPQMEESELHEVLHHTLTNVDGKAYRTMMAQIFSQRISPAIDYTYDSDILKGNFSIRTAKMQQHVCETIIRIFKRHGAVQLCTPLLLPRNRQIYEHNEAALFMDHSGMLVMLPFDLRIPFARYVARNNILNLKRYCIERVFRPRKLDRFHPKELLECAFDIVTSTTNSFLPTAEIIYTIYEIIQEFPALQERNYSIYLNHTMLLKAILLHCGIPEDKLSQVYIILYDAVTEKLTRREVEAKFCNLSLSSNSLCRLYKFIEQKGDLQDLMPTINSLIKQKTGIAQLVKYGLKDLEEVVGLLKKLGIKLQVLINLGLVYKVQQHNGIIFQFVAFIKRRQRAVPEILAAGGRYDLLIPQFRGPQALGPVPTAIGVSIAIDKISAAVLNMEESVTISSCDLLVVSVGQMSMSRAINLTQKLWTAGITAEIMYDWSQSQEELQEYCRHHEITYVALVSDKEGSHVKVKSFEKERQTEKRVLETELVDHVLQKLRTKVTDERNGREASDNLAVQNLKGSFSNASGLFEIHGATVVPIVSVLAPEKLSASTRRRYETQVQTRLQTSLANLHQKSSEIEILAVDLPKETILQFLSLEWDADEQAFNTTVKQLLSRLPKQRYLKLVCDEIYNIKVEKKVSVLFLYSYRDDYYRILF
method.notes: GCN2 enzyme inhibition assay (Transcreener ADP2 fluorescence polarization)
Type: biochemical
settings: compounds of Formula II; 280 μM ATP, 4 nM GCN2 kinase
compounds and their reported Ki
endpoint.name: Ki

>>> df
                                    compound         result
 0  CS(=O)(=O)N1CCC2(CCN2c2cncc(-c3cnc4ccc(C(F)F)nn34)c2)CC1 [II-42]  10 to 1000 nM
 1  O=C1CN(c2cc(-c3cnc4ccc(C(F)F)nn34)ccn2)CCN1 [II-62]  10 to 1000 nM
 2  C[C@@H]1C[C@H](NS(C)(=O)=O)CN(c2cc(-c3cnc4ccc(C(F)F)nn34)ncn2)C1 [II-449]        < 10 nM
 3  CS(=O)(=O)NCC1CN(c2cc(-c3cnc4ccc(C(F)F)nn34)ccn2)CCC1(F)F (stereo not drawn) [II-153]        < 10 nM
 4  O=C(NCCO)C1CCCN(c2cc(-c3cnc4ccc(C(F)F)nn34)ncn2)C1 (stereo not drawn) [II-191]  10 to 1000 nM
 5  C[C@H]1CN(c2cc(-c3cnc4ccc(C(F)F)nn34)ncn2)C[C@@H]1CNS(C)(=O)=O [II-237]        < 10 nM
 6  CN(CC1CCCN(c2cc(-c3cnc4ccc(C(F)F)nn34)ncn2)C1)S(N)(=O)=O (stereo not drawn) [II-311]        < 10 nM
 7  CS(=O)(=O)CCC1CCCN(c2cc(-c3cnc4ccc(C(F)F)nn34)ncn2)C1 (stereo not drawn) [II-493]  10 to 1000 nM
 8  CC(NS(C)(=O)=O)C1CN(c2cc(-c3cnc4ccc(C(F)F)nn34)ncn2)CCN1C (stereo not drawn) [II-473]  10 to 1000 nM
 9  CS(C)(=O)=NC[C@@H]1CN(c2cc(-c3cnc4ccc(C(F)F)nn34)ccn2)CCO1 [II-102]  10 to 1000 nM
10  N#CC1CN(c2cc(-c3cnc4ccc(C(F)F)nn34)ncn2)CCO1 (stereo not drawn) [II-531]  10 to 1000 nM
11  N#CCC1CN(c2cc(-c3cnc4ccc(C(F)(F)F)nn34)ncn2)CCO1 (stereo not drawn) [II-513]  10 to 1000 nM
12  CC1C(CNS(C)(=O)=O)CCCN1c1cc(-c2cnc3ccc(C(F)F)nn23)ncn1 (single isomer, unassigned) [II-266]        < 10 nM
13  O=C(NC1CC1)NC1CCN(c2cc(-c3cnc4ccc(C(F)F)nn34)ncn2)C1 (stereo not drawn) [II-216]  10 to 1000 nM
14  CS(=O)(=O)NC[C@H]1CCCN(c2cc(-c3cnc4ccc(C(F)(F)F)nn34)ncn2)C1 [II-291]        < 10 nM
15  CS(=O)(=O)NCC1COCCN(c2cc(-c3cnc4ccc(C(F)F)nn34)ccn2)C1 (stereo not drawn) [II-99]        < 10 nM
16  CS(=O)(=O)NC1CN(c2cc(-c3cnc4ccc(C(F)F)nn34)ncn2)CCC1(F)F (stereo not drawn) [II-597]  10 to 1000 nM
17  CC(NS(C)(=O)=O)[C@@H]1CN(c2cc(-c3cnc4ccc(C(F)F)nn34)ncn2)CCO1 (single isomer, unassigned) [II-510]  10 to 1000 nM
18  Cc1noc([C@@H]2CN(c3cc(-c4cnc5ccc(C(F)F)nn45)ccn3)C[C@H](C)O2)n1 [II-748]  10 to 1000 nM
19  CS(=O)(=O)NCC1CN(c2cc(-c3cnc4ccc(C(F)F)nn34)ncn2)CC(C2CC2)O1 (stereo not drawn) [II-444]        < 10 nM
20  CC1C(CNS(C)(=O)=O)OCCN1c1cc(-c2cnc3ccc(C(F)F)nn23)ncn1 (single isomer, unassigned) [II-372]      > 1000 nM
21  CC1CC(C)(O)C(CNS(C)(=O)=O)CN1c1cc(-c2cnc3ccc(C(F)F)nn23)ncn1 (stereo not drawn) [II-367]  10 to 1000 nM
22  CC1CC(C(N)=O)C(C)N(c2cc(-c3cnc4ccc(C(F)(F)F)nn34)ncn2)C1 (single isomer, unassigned) [II-717]        < 10 nM
23  FC(F)c1ccc2ncc(-c3ccnc(N4CC5(CNC5)C4)c3)n2n1 [II-79]  10 to 1000 nM
24  OCCC1CCN(c2cc(-c3cnc4ccc(C(F)F)nn34)ccn2)CC1 [II-168]  10 to 1000 nM
25  CC1C(CNS(C)(=O)=O)CC(F)(F)CN1c1cc(-c2cnc3ccc(C(F)F)nn23)ncn1 (stereo not drawn) [II-329]        < 10 nM
26  FC(F)c1ccc2ncc(-c3cc(N4CCOC(c5cn[nH]c5)C4)ncn3)n2n1 (stereo not drawn) [II-4]  10 to 1000 nM
27  CC1CC(N=S2(=O)CCCC2)CN(c2cc(-c3cnc4ccc(C(F)F)nn34)ncn2)C1 (stereo not drawn) [II-649]  10 to 1000 nM
28  O=C1CN(c2cc(-c3cnc4ccc(C(F)F)nn34)ccn2)CC2(CC2)N1 [II-160]  10 to 1000 nM
29  CS(=O)(=O)NCC1CCCN(c2cc(-c3cnc4ccc(C#N)nn34)ncn2)C1 (stereo not drawn) [II-692]  10 to 1000 nM
30  FC(F)c1ccc2ncc(-c3cc(N4CCCCC4)ncn3)n2n1 [II-308]  10 to 1000 nM
31  NS(=O)(=O)NCC1CCCN(c2cc(-c3cnc4ccc(C(F)F)nn34)ncn2)C1 (single isomer, unassigned) [II-277]        < 10 nM
32  FC(F)c1ccc2ncc(-c3cc(-c4cnn(C5CCOCC5)c4)ncn3)n2n1 [II-709]  10 to 1000 nM

---

measured.target: intracellular GCN2 (phosphorylation of the GCN2 substrate eIF2α) (Homo sapiens)
Sequence (Q9P2K8 whole entry): as above
method.notes: GCN2 cellular inhibition assay (AlphaScreen SureFire P-eIF2α Ser51, borrelidin-treated U2OS cells)
Assay type: cell-based
settings: compounds of Formula IV; biomarker assay, phosphorylated eIF2α Ser51 in borrelidin-treated U2OS cells
Measured IC50 by item
endpoint.name: IC50

>>> print(df.to_string())
                                    compound  endpoint_name       result
 0  CC1CN(c2cc(OCCO)nc(-c3cnc4cnc(C(F)(F)F)cn34)n2)C(C)C(c2cn[nH]c2)N1 (centres unmarked)           IC50  0.5 to 5 µM
 1  Brc1cn2c(-c3nccc(N4CCOC(c5cn[nH]c5)C4)n3)cnc2cn1 (centres unmarked)           IC50     < 0.5 µM
 2  CS(C)(=O)=NC1CC(c2cn[nH]c2)CN(c2ccnc(-c3cnc4cnc(C(F)(F)F)cn34)n2)C1 (single isomer, unassigned) [IV-399]           IC50  0.5 to 5 µM
 3  C[C@@H]1C[C@H](c2c[nH]nc2F)CN(c2nccc(-c3cnc4cnc(C(F)(F)F)cn34)n2)C1           IC50     < 0.5 µM
 4  CC1CN(c2ccnc(-c3cnc4cnc(Br)cn34)n2)CC(c2cn[nH]c2)N1 (single isomer, unassigned) [IV-364]           IC50  0.5 to 5 µM
 5  Cc1n[nH]cc1C1CCCN(c2ccnc(-c3cnc4cnc(C(F)F)cn34)n2)C1 (single isomer, unassigned) [IV-468]           IC50  0.5 to 5 µM
 6  FC(F)(F)c1cn2c(-c3nccc(N4CCOC(c5cn[nH]c5)C4)n3)cnc2cn1 (single isomer, unassigned) [IV-8]           IC50  0.5 to 5 µM
 7  FC(F)(F)c1cn2c(-c3nccc(N4CCCC(c5cnco5)C4)n3)cnc2cn1 (centres unmarked)           IC50  0.5 to 5 µM
 8  FC(F)(F)c1cn2c(-c3nccc(N4CCOC(c5ccncc5)C4)n3)cnc2cn1 (centres unmarked)           IC50       > 5 µM
 9  CC1C(c2cn[nH]c2)OCCN1c1ccnc(-c2cnc3cnc(C(F)(F)F)cn23)n1 (single isomer, unassigned)           IC50     < 0.5 µM
10  OC1CCCN(c2ccnc(-c3cnc4cnc(C(F)(F)F)cn34)n2)CC1 (centres unmarked)           IC50       > 5 µM
11  FC(F)(F)c1cn2c(-c3nccc(N4CCCC(c5ncco5)C4)n3)cnc2cn1 (centres unmarked)           IC50  0.5 to 5 µM
12  CC1C(c2cn[nH]c2)NCCN1c1ccnc(-c2cnc3cnc(Br)cn23)n1 (single isomer, unassigned) [IV-413]           IC50  0.5 to 5 µM
13  NS(=O)(=O)N[C@H]1CCCN(c2ccnc(-c3cnc4cnc(C(F)F)cn34)n2)C1           IC50       > 5 µM
14  CC1C(C(N)=O)CCN1c1ccnc(-c2cnc3cnc(C(F)(F)F)cn23)n1 (single isomer, unassigned) [IV-615]           IC50  0.5 to 5 µM
15  Cc1n[nH]cc1C1CCCN(c2ccnc(-c3cnc4cnc(C(F)F)cn34)n2)C1 (centres unmarked) [IV-97]           IC50       > 5 µM
16  CC(=O)N1CC=C(c2ccnc(-c3cnc4cnc(C(F)F)cn34)n2)CC1           IC50       > 5 µM
17  O=C1NCCN2CCN(c3ccnc(-c4cnc5cnc(C(F)F)cn45)n3)CC12 (centres unmarked)           IC50       > 5 µM
18  NC(=O)c1cc(C2CCCN(c3ccnc(-c4cnc5cnc(C(F)F)cn45)n3)C2)n[nH]1 (centres unmarked)           IC50       > 5 µM
19  Cn1cc(C2CCN(c3ccnc(-c4cnc5cnc(C(F)F)cn45)n3)C2)cn1 (centres unmarked)           IC50       > 5 µM
20  Cc1n[nH]cc1[C@@H]1C[C@H](O)CN(c2ccnc(-c3cnc4cnc(C(F)(F)F)cn34)n2)C1           IC50  0.5 to 5 µM
21  OCc1n[nH]cc1C1CCN(c2ccnc(-c3cnc4cnc(C(F)(F)F)cn34)n2)C1 (centres unmarked)           IC50  0.5 to 5 µM
22  OC1CCN(c2ccnc(-c3cnc4cnc(C(F)(F)F)cn34)n2)CC1c1cn[nH]c1 (single isomer, unassigned) [IV-621]           IC50  0.5 to 5 µM
23  CC1CN(c2ccnc(-c3cnc4cnc(C(F)(F)F)cn34)n2)C(C)C(c2cn[nH]c2)N1 (centres unmarked) [IV-222]           IC50     < 0.5 µM
24  CC1C(c2cn[nH]c2)CCCN1c1ccnc(-c2cnc3cnc(C(F)(F)F)cn23)n1 (centres unmarked) [IV-388]           IC50     < 0.5 µM
25  CC1C(C(N)=O)CCCN1c1ccnc(-c2cnc3cnc(C(F)(F)F)cn23)n1 (single isomer, unassigned)           IC50  0.5 to 5 µM
26  CC1CN(c2ccnc(-c3cnc4cnc(Br)cn34)n2)C(C)C(c2c[nH]cn2)N1 (single isomer, unassigned) [IV-377]           IC50  0.5 to 5 µM
27  OCCC1CCN(c2ccnc(-c3cnc4cnc(C(F)(F)F)cn34)n2)C1 (centres unmarked)           IC50  0.5 to 5 µM
28  c1cc(N2CCOC(c3cn[nH]c3)C2)nc(-c2cnc3cnc(C4CC4)cn23)n1 (centres unmarked)           IC50  0.5 to 5 µM
29  FC(F)OC1CC(c2cn[nH]c2)CN(c2ccnc(-c3cnc4cnc(C(F)(F)F)cn34)n2)C1 (centres unmarked) [IV-466]           IC50  0.5 to 5 µM
30  CC1(c2n[nH]cc2C2CCN(c3ccnc(-c4cnc5cnc(C(F)(F)F)cn45)n3)C2)CC1 (centres unmarked)           IC50       > 5 µM
31  FC(F)(F)c1cn2c(-c3nsc(N4CCOC(c5cn[nH]c5)C4)n3)cnc2cn1 (centres unmarked)           IC50       > 5 µM

Cited source: patent US10988477B2
